- Tested on: NCI-H460 lung
- ASSAY NOTES: NCI-60 one-dose screen, 48 h (100 = growth as untreated, 0 = no growth, -100 = all killed)
- ASSAY CONTEXT: 10 µM unless noted
About 83,000 compounds went through this panel and 20% of them were active in at least one assay; those are over-represented in the sample as a whole.

{"MOLECULE": "C=CCOc1cccc(/C=C2\\SC(=Nc3ccc(O)cc3)NC2=O)c1", "UNIT ANNOTATION": "%", "growth": 2.23}
{"MOLECULE": "COc1ccc(Oc2nc(Nc3ccc(N4CCCCC4)nc3)ncc2NC(=O)c2cc(OC)cc(OC)c2)cc1", "UNIT ANNOTATION": "%", "growth": 19}
{"MOLECULE": "CCC(O)(C(c1ccccc1)c1ccccn1)C(c1ccccc1)c1ccccn1 (centres undefined)", "UNIT ANNOTATION": "%", "growth": 110}
{"MOLECULE": "NS(=O)(=O)Oc1ccc(NC(=O)C23CC4CC(CC(C4)C2)C3)cc1Cl", "UNIT ANNOTATION": "%", "growth": 103}
{"MOLECULE": "Cc1cccc(-c2cc(O)c(C(=O)N3CCOCC3)s2)c1", "UNIT ANNOTATION": "%", "growth": 17.7}
{"MOLECULE": "CCCCCCCCc1cc[n+](CC(=O)c2ccc(Br)cc2)cc1", "UNIT ANNOTATION": "%", "growth": -84.9}
{"MOLECULE": "O=[N+]([O-])c1ccc(-c2cc3c(Nc4ccc(Sc5nc6ccccc6s5)c(Cl)c4)ncnc3s2)cc1", "UNIT ANNOTATION": "%", "growth": 11.8}
{"MOLECULE": "COc1cc(C(=O)/C=C/c2c(-c3ccc(F)cc3)nc3ncccn23)cc(OC)c1OC", "UNIT ANNOTATION": "%", "growth": 21.6}
{"MOLECULE": "CCN(CC)CCNc1ccc(C)c2sc3cc(C)ccc3c(=O)c12", "UNIT ANNOTATION": "%", "growth": 43}
{"MOLECULE": "O=C1c2ccccc2C(=O)c2cc(Cn3cc[n+](Cc4ccc5ccccc5c4)c3)ccc21", "UNIT ANNOTATION": "%", "growth": 94}
{"MOLECULE": "COc1ccc(-c2nc3sc4c(c3c(=O)[nH]2)CCCC4)c2ccccc12", "UNIT ANNOTATION": "%", "growth": 0.61}
{"MOLECULE": "N#C/C=C(\\c1ccc([N+](=O)[O-])cc1)n1nnc2cc(Cl)c(Cl)cc21", "UNIT ANNOTATION": "%", "growth": -8.66}
{"MOLECULE": "CN1CCN(C2=C(Cl)C(=O)c3ccccc3C2=O)CC1", "UNIT ANNOTATION": "%", "growth": 92.3}
{"MOLECULE": "C=C1C(=O)O[C@H]2[C@H]1CC/C(C(=O)NCCCCCCCCNC(=O)/C1=C/CC[C@@]3(C)O[C@H]3[C@H]3OC(=O)C(=C)[C@@H]3CC1)=C\\CC[C@@]1(C)O[C@@H]21", "UNIT ANNOTATION": "%", "growth": 110}
{"MOLECULE": "COc1ccc(-n2nnc(C(=O)NCCc3c[nH]c4ccc(F)cc34)c2C)cc1", "UNIT ANNOTATION": "%", "growth": 100}
{"MOLECULE": "O=C(CCc1nc(-c2cccc(Cl)c2)no1)Nc1ccccn1", "UNIT ANNOTATION": "%", "growth": 103}
{"MOLECULE": "COc1ccc(-c2nnc(-c3ccc4c(c3)nc(-c3ccccc3)n4C3CCCCC3)o2)cc1", "UNIT ANNOTATION": "%", "growth": 64.4}
{"MOLECULE": "O=S(=O)(NCCNc1cc(-c2c(-c3cccc(O)c3)nc3sccn23)ccn1)c1ccc(Cl)cc1", "UNIT ANNOTATION": "%", "growth": 58.3}
{"MOLECULE": "O=C1N/C(=N/O)S/C1=C/c1cn(-c2ccccc2)nc1-c1ccccc1", "UNIT ANNOTATION": "%", "growth": 104}
{"MOLECULE": "CS(=O)(=O)c1ccc(-c2[nH]c3ccc(F)cc3c2/C=N/NC(N)=S)cc1", "UNIT ANNOTATION": "%", "growth": 3.52}
{"MOLECULE": "N#Cc1cccc(-c2nc3ccccn3c2NCCN2CCOCC2)c1", "UNIT ANNOTATION": "%", "growth": 98.8}
{"MOLECULE": "CCC(=O)OC1=C(C)SC2=NC(c3ccc(Cl)c(Cl)c3)=CC(c3cc(OC)c(OC)c(OC)c3)N21 (centres undefined)", "UNIT ANNOTATION": "%", "growth": 108}
{"MOLECULE": "CC(=O)Nc1ccc(-c2cc3c(NCc4ccc(F)cc4)ncnc3s2)cc1", "UNIT ANNOTATION": "%", "growth": 77.3}
{"MOLECULE": "O=C1Nc2ccccc2/C1=N/N=C/c1ccc(OC2OC(CO)C(O)C(O)C2O)cc1 (centres undefined)", "UNIT ANNOTATION": "%", "growth": 111}
{"MOLECULE": "O=C(Nc1ccc(N2CCCCC2)c(Cl)c1)c1ccc(Br)o1", "UNIT ANNOTATION": "%", "growth": 69.4}
{"MOLECULE": "COc1cccc(-c2cnco2)c1OCc1c(C)c(COc2c(OC)cccc2-c2cnco2)c(C)c(COc2c(OC)cccc2-c2cnco2)c1C", "UNIT ANNOTATION": "%", "growth": 52.2}
{"MOLECULE": "Cc1nn(Cc2ccccc2)cc1C(=O)Nc1sc2c(c1C(N)=O)CCC(=O)C2", "UNIT ANNOTATION": "%", "growth": 86}
{"MOLECULE": "O=C(NC(=S)Nc1ccc(-c2nc3ccccc3[nH]2)cc1)c1ccc2ccccc2c1", "UNIT ANNOTATION": "%", "growth": 5.41}
{"MOLECULE": "CCNCCNc1cc(-c2ccc(C#N)cc2)c(C#N)c2nc3ccccc3n12", "UNIT ANNOTATION": "%", "growth": -28.1}
{"MOLECULE": "COc1ccc(-c2nnc(SCC(=O)NC3=NN=C(c4ccccc4)CS3)o2)cc1", "UNIT ANNOTATION": "%", "growth": 101}
{"MOLECULE": "COC1(CC[C@@H](C)COC2OC(CO)C(O)C(O)C2O)O[C@H]2C[C@H]3[C@@H]4CC=C5C[C@@H](OC6OC(CO)C(OC7OC(C)C(O)C(O)C7O)C(O)C6OC6OC(C)C(O)C(O)C6O)CC[C@]5(C)[C@H]4CC[C@]3(C)[C@H]2[C@@H]1C (some centres undefined)", "UNIT ANNOTATION": "%", "growth": -90.2}
{"MOLECULE": "CCCCN1CCN(c2ccc3nc(-c4ccc5nc(-c6cc(OC)c(OC)c(OC)c6)[nH]c5c4)[nH]c3c2)CC1", "UNIT ANNOTATION": "%", "growth": 83}
{"MOLECULE": "O=C(CCCCCCCn1cc(-c2cccnc2)nn1)Nc1ccccc1-c1ccccc1", "UNIT ANNOTATION": "%", "growth": 29.3}
{"MOLECULE": "CCOc1cccnc1/C=N/NC(N)=S", "UNIT ANNOTATION": "%", "growth": 19.9}

Recorded values, source PubChem BioAssay (NCI).
